# System: K-562 leukemia
# MEASUREMENT_DESCRIPTION: NCI-60 one-dose screen, 48 h (100 = growth as untreated, 0 = no growth, -100 = all killed)
# RECORDED_CONDITIONS: 10 µM unless noted
About 83,000 compounds went through this panel and 20% of them were active in at least one assay; those are over-represented in the sample as a whole.
REPORTED_ENDPOINT: growth (%)
Lab book: enter the figure in %, no units written.

Consider the worked cases shown below.
[
  {
    "MOLECULE": "O=C1C2C(C(=O)[N]1[Hg][c]1cccs1)C1(Cl)C(Cl)=C(Cl)C2(Cl)C1(Cl)Cl (stereo not drawn)",
    "UNIT_STRING": "%",
    "growth": -2.45
  },
  {
    "MOLECULE": "C=CC12CCN(CC1)C(C(O)c1ccnc3ccc(OC)cc13)C2 (stereo not drawn)",
    "UNIT_STRING": "%",
    "growth": 17.6
  }
]

IN: Report growth for Brc1ccc2c(c1)c(-c1nc(-c3c[nH]c4ncccc34)cs1)cn2CCN1CCOCC1 please.
OUT: 24.3

---

Measured growth accompanies every entry in the list below.
# System: SW-620 colon
# MEASUREMENT_DESCRIPTION: NCI-60 one-dose screen, 48 h (100 = growth as untreated, 0 = no growth, -100 = all killed)
# RECORDED_CONDITIONS: 10 µM unless noted
This is part of a sample that, as a whole, favours compounds with a hit. Of some 83,000 tested, about 20% had one in any assay. Activity calls are given as the source filed them. How the source made its calls: active means growth percent below 10; inactive means the rest.

[
  {
    "COMPOUND": "Clc1ccc(CO/N=C(\\Cn2ccnc2)c2ccc(Cl)cc2Cl)c(Cl)c1",
    "growth": "8.71% (active)"
  },
  {
    "COMPOUND": "COC(=O)[C@H](C[C@H](Cc1ccccc1)NC(=O)c1csc([C@@H](C[C@H](C(C)C)N(C)C(=O)[C@@H](NC(=O)[C@H]2CCCCN2C)C(C)C)OC(C)=O)n1)NC(=O)OCc1ccccc1",
    "growth": "25.4% [8.5 µM] (inactive)"
  },
  {
    "COMPOUND": "C[C@@H]1CCC2[C@@H](C)[C@H](OC(=O)CCC(=O)NCCNC(=O)Cc3cc(=O)oc4cc(N(C)C)ccc34)O[C@@H]3O[C@]4(C)CC[C@@H]1C23OO4 (stereo partly specified)",
    "growth": "25.3% (inactive)"
  },
  {
    "COMPOUND": "C[C@]12CC[C@@H]3c4ccc(Oc5nc(N6CC6)nc(N6CC6)n5)cc4CC[C@H]3[C@@H]1CCC2=O",
    "growth": "25.1% (inactive)"
  }
]

IN: # query: growth | item CC(C)[C@]12O[C@H]1[C@@H]1O[C@]13[C@]1(O[C@H]1C[C@H]1c4c(C(=O)c5ccccc5)oc(OC(=O)c5ccccc5)c4CC[C@@]13C)[C@@H]2O | system: SW-620 colon
OUT: -3.73% (active)

IN: Observed growth on SW-620 colon for CN1C(=O)C(=Cc2cn(Cc3ccccc3)c3ccccc23)C(=O)N(C)C1=O , please.
OUT: 79.7% (inactive)

IN: Hi! What's the reported growth for CN[C@@]1(c2ccccc2Cl)CCCC[C@@H]1NCC1CCCO1 (stereo partly specified) on SW-620 colon?
OUT: 102% (inactive)

IN: # query: growth | item CN(C)C(=O)Oc1ccc(Br)cc1 | system: SW-620 colon
OUT: 109% (inactive)

IN: Give growth (SW-620 colon) of the following compound: CC(C)(NC(=O)O[C@@H]1CN2CCC1CC2)c1csc(-c2ccc(F)cc2)n1
OUT: 99.2% (inactive)

IN: Field: growth (SW-620 colon). Entry: Cn1cccc1C1CC(=O)N(CCC[Se]C#N)C1=O (stereo unspecified)
OUT: 56.7% (inactive)

IN: // map O=C(c1cccc(O)c1O)c1cn(Cc2ccc(F)cc2)c2cccc(O)c12 to recorded growth (system: SW-620 colon)
OUT: 37.1% (inactive)

---

# Test system: SW-620 colon
# MEASUREMENT_DESCRIPTION: NCI-60 one-dose screen, 48 h (100 = growth as untreated, 0 = no growth, -100 = all killed)
# RECORDED_CONDITIONS: 10 µM unless noted
# Description: Growth inhibition of the SW-620 human tumor cell line is measured as a screen for anti-cancer activity. Cells are grown in 96 well plates and exposed to the test compound for 48 hours. Compounds are tested at a single concentration, which is 10^-5 M for most compounds. The reported endpoint is percent growth (GI% or GIPRCNT), where numbers from 0 - 100% represent growth inhibition, and numbers from -100% - 0 represent cell death. For example, a value of 40 represents 60% growth inhibition. […]
This is part of a sample that, as a whole, favours compounds with a hit. Of some 83,000 tested, about 20% had one in any assay.
# if value of growth reaches 90%, tag 1.0; if it stays below, tag 0.0

Please review the entries below; each comes with its answer.
[
  {
    "COMPOUND": "O=C1CCC2(O)[C@@H]3Cc4ccc(O)c5c4[C@]2(CCN3Cc2ccoc2)C1O5 (some centres not stated)",
    "ASSIGNED_CLASS": 1.0
  },
  {
    "COMPOUND": "C/C(=C\\c1ccn(-c2ccc(N)cc2)n1)[C@@H]1C[C@@H]2O[C@]2(C)CCC[C@H](C)[C@H](O)[C@@H](C)C(=O)C(C)(C)[C@@H](O)CC(=O)O1",
    "ASSIGNED_CLASS": 0.0
  }
]

IN: Answer whether growth of CC[C@H](C)[C@H](NC(=O)[C@H]1CCCCN1C)C(=O)N(C)[C@H](CC(=O)c1nc(C(=O)N[C@@H](Cc2ccccc2)C[C@H](C)C(=O)O)cs1)C(C)C is greater than or equal to 90%.
OUT: 0.0

IN: Does the compound CN1CC(=O)N(O)C1(C)c1cccnc1 (configuration not stated) have recorded growth that is 90% or more?
OUT: 1.0

IN: Does the reported growth for O=C(CN1CCN(C(=O)c2ccco2)CC1)Nc1ccc(Cl)cc1C(=O)c1ccccc1Cl fall at or above the 90% mark?
OUT: 0.0

IN: Given the entry N#C[Se]CCN1C(=O)c2ccccc2C1=O , answer whether its growth meets or surpasses 90%.
OUT: 0.0

---

# Tested on: SK-OV-3 ovarian
# MEASUREMENT_DESCRIPTION: NCI-60 one-dose screen, 48 h
# RECORDED_CONDITIONS: 10 µM unless noted
The panel holds about 83,000 compounds, 20% with a hit somewhere; the sample as a whole holds those more often. Calls of active or inactive are those of the source. Rule for the calls: active = growth percent below 10; inactive = the rest.
Give your call using only these classes: active, inactive

[
  {
    "MOLECULE": "C=CCCCN=C=S",
    "EXPERIMENTAL_TARGET": "SK-OV-3 ovarian",
    "ASSIGNED_CLASS": "inactive"
  },
  {
    "MOLECULE": "O=C1C2CCC1C(N1CCCC1)CC2 (stereo not given)",
    "EXPERIMENTAL_TARGET": "SK-OV-3 ovarian",
    "ASSIGNED_CLASS": "inactive"
  },
  {
    "MOLECULE": "CCOC(=O)CCN(C)C1=Nc2ccc(Cl)cc2C(c2ccccc2)=[N+]([O-])C1",
    "EXPERIMENTAL_TARGET": "SK-OV-3 ovarian",
    "ASSIGNED_CLASS": "inactive"
  }
]

IN: Please share the test call associated with COC(=O)[C@@H](C)C[C@H](Cc1ccccc1)NC(=O)c1csc([C@@H](C[C@H](C(C)C)N(C)C(=O)[C@@H](NC(=O)[C@H]2CCCCN2C)C2CCCCC2)OC(C)=O)n1 .
OUT: active

IN: Returns: the outcome recorded for OCc1ccc2c(c1)OCO2 in this assay.
OUT: inactive

---

# System: U251 CNS
# MEASUREMENT_DESCRIPTION: NCI-60 one-dose screen, 48 h
# RECORDED_CONDITIONS: 10 µM unless noted
This is part of a sample that, as a whole, favours compounds with a hit. Of some 83,000 tested, about 20% had one in any assay. Activity calls are given as the source filed them. The calls were made as follows: active = growth percent below 10; inactive = the rest.
Form entry, call: pick from yes (1) for active, no (0) for inactive

Reference set (3 entries):
[
  {
    "MOLECULE": "CC1(C)N=C(N)N=C(N)N1c1cccc(CCCCc2ccc(Cl)c(S(=O)(=O)F)c2)c1",
    "EXPERIMENTAL_TARGET": "U251 CNS",
    "ASSIGNED_CLASS": "no (0)"
  },
  {
    "MOLECULE": "CC(=O)C(c1c(O)c2ccccc2oc1=O)c1cc(=O)oc2c1ccc1ccccc12 (configuration not stated)",
    "EXPERIMENTAL_TARGET": "U251 CNS",
    "ASSIGNED_CLASS": "no (0)"
  },
  {
    "MOLECULE": "CC(C)(N)Cc1ccccc1",
    "EXPERIMENTAL_TARGET": "U251 CNS",
    "ASSIGNED_CLASS": "no (0)"
  }
]

IN: What did this assay record as the result for O=C1CNC(c2ccccc2)c2cc(Cl)ccc2N1 (configuration not stated) ?
OUT: no (0)
